- measurement_target: Replicase polyprotein 1ab (Severe acute respiratory syndrome coronavirus 2, UniProt P0DTD1)
- procedure_summary: Inhibition of recombinant SARS-CoV-2 PLpro using TLKGGI-AMC as substrate assessed as assessed as inhibition constant ny measuring fluorescence signal measured after 15 mins
- condition_info: read-out: Ki
reported_metric: pKi
Please keep in mind that pKi is minus log10 of the molar concentration; only the number is needed.

Consider the reported pKi for these compounds:
line_notation: CCOC(=O)c1sc(NNC(=O)/C=C/c2ccccc2)nc1C
pKi: 6.70
//
line_notation: O=C(NNc1nc(-c2ccc(Br)cc2)cs1)c1ccc([N+](=O)[O-])cc1
pKi: 5.37
//
line_notation: O=C(NNc1nc(-c2ccc(Cl)cc2)cs1)c1ccc(Cl)cc1
pKi: 6.30

Indicate its recorded pKi; the compound in question is `O=C(NNc1nc(-c2ccc(Cl)cc2)cs1)c1ccc(F)cc1`
6.74

----------
- Tested on: SARS-CoV-2
- procedure_summary: Antiviral activity against SARS-CoV-2 infected in African green monkey Vero E6 cells assessed as viral reduction by measuring viral RNA measured up to 72 hrs by RT-PCR analysis
- Type: functional, organism-based
- condition_info: Severe acute respiratory syndrome coronavirus 2, SARS-CoV-2, Vero C1008, 72 h
reported_metric: pEC50
Please keep in mind that pEC50 is minus log10 of the molar concentration; only the number is needed.

Consider the reported pEC50 for these molecules:
line_notation: CCOC(=O)c1sc(NNC(=O)c2ccc([N+](=O)[O-])cc2)nc1C
reported_metric: pEC50
result: 7.01
//
line_notation: Cc1ccc(-c2csc(NNC(=O)c3ccc([N+](=O)[O-])cc3)n2)cc1
reported_metric: pEC50
result: 6.90
//
line_notation: O=C(NNc1nc(-c2ccc(Cl)cc2)cs1)c1ccc(Cl)cc1
reported_metric: pEC50
result: 7.19
//
line_notation: CCOC(=O)c1sc(NNC(=O)c2cccs2)nc1C
reported_metric: pEC50
result: 6.93

Indicate its recorded pEC50; the molecule in question is `CCOC(=O)c1sc(NNC(=O)c2ccc(Cl)cc2)nc1C`
7.14

Indicate its recorded pEC50; the molecule in question is `Cc1ccc(C(=O)NNc2nc(-c3ccc(Cl)cc3)cs2)cc1`
7.17

Indicate its recorded pEC50; the molecule in question is `CCOC(=O)c1sc(NNC(=O)c2ccc(Br)cc2)nc1C`
6.94

----------
- procedure_summary: Cytotoxicity against African green monkey Vero E6 cells assessed as cell viability at 100 uM measured after 48 hrs by MTT assay relative to control
- Assay type: toxicity, cell-based, Vero C1008
- condition_info: chlorocebus sabaeus, read-out: Activity
reported_metric: viability at 48 h, 100 µM (%)
Hi! Could you send only the number? It should be in %, unit omitted.

line_notation: CCOC(=O)c1sc(NNC(=O)c2ccc([N+](=O)[O-])cc2)nc1C
readout_unit: %
viability at 48 h, 100 µM: 89.2
//
line_notation: Oc1ccc(/C=N/Nc2nc(-c3ccc(Cl)cc3)cs2)cc1
readout_unit: %
viability at 48 h, 100 µM: 91

Let us examine a further case.
Indicate its recorded viability at 48 h, 100 µM; the compound in question is `CCOC(=O)c1sc(NNC(=O)c2ccc(Cl)cc2)nc1C`
92.5
